Just for reference, patent US20230340142A1 is where these values come from.

Biological target: T1, human PD-L1 (human, UniProt Q9NZQ7 19-238, limits assumed)
T1 construct: also called hPD-L1
T1 sequence (Q9NZQ7 19-238 limits assumed): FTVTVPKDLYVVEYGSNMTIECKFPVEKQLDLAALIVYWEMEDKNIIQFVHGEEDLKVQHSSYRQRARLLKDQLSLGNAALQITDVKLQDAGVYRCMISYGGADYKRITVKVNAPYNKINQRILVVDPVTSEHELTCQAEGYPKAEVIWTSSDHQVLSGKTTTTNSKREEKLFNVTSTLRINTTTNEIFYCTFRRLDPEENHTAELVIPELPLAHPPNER
Experiment: flow cytometry on HCC827 cells (PD-L1 on the cell surface), PE-labelled secondary antibody, MFI
property: EC50 (read off the curve)

binder | val
Clone N (antibody, V domains shown, Mouse hybridoma clone) VH: EVQLQQSGPELVKPGASMKISCKASGYSFTGYTMNWVKQSHGKNLEWIGLIIPHNGGTSYNQKFKDKATLTVDKSSRTAYMELLSLTSEDSAVYYCASLMTTAPRDSMDYWGQGTSVTVSS VL: DIQMTQTTSSLSASLGDRVTISCRASQDISNYLNWYQQKPDGTVKLLIYYTSRLHSGVPSRFSGSGSGTDYSLTISNLDQEDIATYFCQQGATLPWTFGGGTKLEIK | ~0.02 µg/mL
Clone D (antibody, V domains shown, Mouse hybridoma clone) VH: EVQLQQSGPELVKPGASMKISCKASGYSFTGYTMNWVKQSHGKNLEWIGLIIPYNGGISYNQKFKDKATLTVDKSSSTAYMELLSLTSEDSAVYYCASLITTAPRDSMDYWGQGTSVTVSS VL: DIQMTQTTSSLSASLGDRVTISCRASQDISNYLNWYQQKPDGSVKLLIYYTSKLHSGVPSRFSGSGSGTDYSLTISNLEQEDIATYFCQQGDALPWTFGGGTKLEIK | ~0.02 µg/mL
Clone B (antibody, V domains shown, Mouse hybridoma clone) VH: QGQMQQSGAELVKPGASVKLSCKTSGFTFSSSYISWLKQKPGQSLEWIAWIYAGTGGTSYNQKFTGKAQLTVDTPSSTAYMQFSSLTTEDSAIYYCARHEGKYWYFDVWGAGTTVTVSS VL: QILLTQSPAIMSASPGEKVTMTCSASSSVSYVHWYQQKPGSSPKPWIYDTSNLASGFPARFSGSGSGTSYSLIISSMEAEDAATYYCHQRSSYPWTFGGGTKLEIK | ~0.05 µg/mL
Clone C (antibody, V domains shown, Mouse hybridoma clone) VH: EVQLQQSGADLVKPGASVKLSCTASGFNIKDTYMHWVKQRPEQGLEWIGRIDPANGNTKYDPKFQGKATITTDTSSNTAYLQLSSLTSEDTAVYYCARGLGRWFAYWGQGTLVTVSA VL: DIVMTQSHKFMSTSVGDRVSITCKASQDVSNAVAWYQQKPGQSPELLIYSASNRYTGVPDRFTGSGSGTDFTFTISSVQAEDLAVYYCQQHDSTPLTFGAGTKLELK | ~0.03 µg/mL
